The reported measurements were obtained from the supplement of paper PMC9170038.

# Test system: K4 kissing-loop RNA reporter;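 further: bound reporter read as fluorescence of individual clusters on recovered sequencing chips by microscopy, with normalized cluster intensities fitted with a binding model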
# TEST DESCRIPTION: apparent KD of K4 kissing-loop reporter; higher = weaker reporter binding
# CONDITION LABEL: Eterna round: R107; input ligand: none

{"columns": ["RESIDUE CODES", "apparent KD of K4 kissing-loop reporter [nM]"],
 "data": [
  ["CUGCAACAUAACUUCUUCGUCCUAGAAGACUAGGAUAUCAGGAAACUGAGAAGGAGUCUCUGCAGUGAUGUUGCAGCUAGGACGA [[K]'-[F2]'-[F1]'-[F1]-[F2]-[K1]-[K2]-[F]''_Design3]", 148],
  ["AUUUUGGUUUAGAGUGAUGUUCCUUGUAUUCGAGGACCGGUACGGCCGCCACUCGAAUAGAAAAGAAAAGAAAUGUUUGAUGUUU [BDazzled - #6 SS Tryptophan A]", 537],
  ["CUUCGAUUAACGGAUACCAGUCACUUGGGAGCCACACACAAGUGAGUGAUGUUCACUUGUGACCCUUGGCAGCCGUUAGUCGAAG [#05 K4 Theophylline B Exclusion]", 99.4]
]}
